assay: Cmax in male Sprague-Dawley rat at 10 mg/kg, po measured for 0.25 to 24 hrs; assay type: ADME, organism-based; details: in vivo, time 0.25-24 hrs
measurement_label: Cmax (ng/mL)
# value in ng/mL; strip the unit string

Look up Cmax for this molecule: Cc1cccc(C)c1NC(=O)[C@@H]1Cc2c([nH]c3ccccc23)C2(CN(c3ccccc3)C2)N1
780

---

experiment: Oral bioavailability in male Sprague-Dawley rat at 1 mg/kg, iv measured for 0.25 to 24 hrs; assay type: ADME, organism-based; conditions: in vivo, time 0.25-24 hrs
measurement_label: bioavailability (%)
# value in %; strip the unit string

Look up bioavailability for this compound: Cc1cccc(C)c1NC(=O)[C@@H]1Cc2c([nH]c3ccccc23)C2(CN(c3ccccc3)C2)N1
71.4

---

Entries annotated with measured viability at 24 h, 10 µM
assay: Cytotoxicity against bone marrow macrophage cells (unknown origin) assessed as cell viability at 10 uM incubated for 24 hrs by CCK8 assay relative to control; assay type: toxicity, cell-based; conditions: read-out: Activity
# value in %; strip the unit string

Field: example entries. Status: answers known.
- COc1cccc(OC)c1NC(=O)[C@@H]1Cc2c3ccccc3[nH]c2[C@]2(C[C@@H](c3ccccc3)C2)N1: 70.2
- CC(C)c1ccccc1NC(=O)[C@@H]1Cc2c3ccccc3[nH]c2[C@]2(C[C@H](c3ccccc3)C2)N1: 103
- CC(C)c1cccc(C(C)C)c1NC(=O)[C@@H]1Cc2c3ccccc3[nH]c2[C@]2(C[C@@H](c3ccccc3)C2)N1: 115
- Cc1cccc(C)c1NC(=O)[C@H]1Cc2c3ccccc3[nH]c2[C@]2(C[C@@H](c3ccccc3)C2)N1: 116
- Cc1cccc(C)c1NC(=O)[C@@H]1Cc2c([nH]c3ccccc23)C2(CN(c3cccnc3)C2)N1: 107
- Cc1cccc(C)c1NC(=O)[C@H]1Cc2c([nH]c3ccccc23)C2(CN(c3ccccc3)C2)N1: 119
- Cc1cccc(C)c1NC(=O)[C@H]1Cc2c3ccccc3[nH]c2[C@]2(C[C@H](c3ccccc3)C2)N1: 105
- O=C(Nc1ccccn1)[C@@H]1Cc2c3ccccc3[nH]c2[C@]2(C[C@H](c3ccccc3)C2)N1: 149

Look up viability at 24 h, 10 µM for this compound: Cc1ccccc1NC(=O)[C@@H]1Cc2c3ccccc3[nH]c2[C@]2(C[C@H](c3ccccc3)C2)N1
112

---

assay: Tmax in male Sprague-Dawley rat at 10 mg/kg, po measured for 0.25 to 24 hrs; type: ADME, organism-based; conditions: in vivo, time 0.25-24 hrs
measurement_label: Tmax (min)
# value in min; strip the unit string

Look up Tmax for this compound: Cc1cccc(C)c1NC(=O)[C@@H]1Cc2c([nH]c3ccccc23)C2(CN(c3ccccc3)C2)N1
30

---

assay: Cytotoxicity against bone marrow macrophage cells (unknown origin) assessed as cell viability at 10 uM incubated for 24 hrs by CCK8 assay relative to control; assay type: toxicity, cell-based; settings: read-out: Activity
measurement_label: viability at 24 h, 10 µM (%)
# value in %; strip the unit string

- Cc1cccc(C)c1NC(=O)[C@@H]1Cc2c([nH]c3ccccc23)[C@](C)(CCc2ccccc2)N1: 117
- Cc1cccnc1NC(=O)[C@@H]1Cc2c3ccccc3[nH]c2[C@]2(C[C@H](c3ccccc3)C2)N1: 159
- Cc1cccc(C)c1NC(=O)[C@@H]1Cc2c([nH]c3ccccc23)C2(CN(c3ccc(F)cc3)C2)N1: 119
- CC(C)c1ccccc1NC(=O)[C@@H]1Cc2c3ccccc3[nH]c2[C@]2(C[C@@H](c3ccccc3)C2)N1: 116
- Cc1cc2occ(CN(C)CCN(C)Cc3cn(-c4cccc(C(F)(F)F)c4)c4ccccc34)c(=O)c2cc1C: 3.8
- O=C(Nc1ccccc1F)[C@@H]1Cc2c3ccccc3[nH]c2[C@]2(C[C@@H](c3ccccc3)C2)N1: 101
- Cc1cccc(C)c1NC(=O)[C@@H]1Cc2c3ccccc3[nH]c2[C@]2(C[C@@H](c3ccccc3)C2)N1: 105
- CC(C)c1cccc(C(C)C)c1NC(=O)[C@@H]1Cc2c3ccccc3[nH]c2[C@]2(C[C@H](c3ccccc3)C2)N1: 141

From here, focus on the item given below.
Look up viability at 24 h, 10 µM for this compound: COc1ccc(N2CC3(C2)N[C@H](C(=O)Nc2c(C)cccc2C)Cc2c3[nH]c3ccccc23)cc1
102

---

assay: Cmax in male Sprague-Dawley rat at 1 mg/kg, iv measured for 0.25 to 24 hrs; format: ADME, organism-based; details: in vivo, time 0.25-24 hrs
measurement_label: Cmax (ng/mL)
# value in ng/mL; strip the unit string

Look up Cmax for this compound: Cc1cccc(C)c1NC(=O)[C@@H]1Cc2c([nH]c3ccccc23)C2(CN(c3ccccc3)C2)N1
338

---

Entries annotated with measured inhibition at 0.1 µM
assay: Inhibition of RANKL/M-CSF-induced osteoclastogenesis in male C57/BL6 mouse bone marrow cells at 0.1 uM incubated for 5 to 7 days by TRAP staining based analysis relative to control; format: functional; conditions: C57/BL6, Bone marrow cell, time 5-7 day
# value in %; strip the unit string

Field: example entries. Status: answers known.
- O=C(Nc1ccccc1F)[C@@H]1Cc2c3ccccc3[nH]c2[C@]2(C[C@H](c3ccccc3)C2)N1: 17.6
- Cc1cccc(C)c1NC(=O)[C@@H]1Cc2c([nH]c3ccccc23)C2(CN(c3ccc(C(F)(F)F)cc3)C2)N1: 15.4
- Cc1cccc(C)c1NC(=O)[C@@H]1Cc2c([nH]c3ccccc23)[C@@](C)(CCc2ccccc2)N1: 23.4

From here, focus on the item given below.
Look up inhibition at 0.1 µM for this compound: O=C(Nc1ccccn1)[C@@H]1Cc2c3ccccc3[nH]c2[C@]2(C[C@H](c3ccccc3)C2)N1
13.1

---

experiment: Cytotoxicity against bone marrow macrophage cells (unknown origin) assessed as cell viability at 10 uM incubated for 24 hrs by CCK8 assay relative to control; type: toxicity, cell-based; settings: read-out: Activity
measurement_label: viability at 24 h, 10 µM (%)
# value in %; strip the unit string

Field: example entries. Status: answers known.
- O=C(Nc1ccccc1F)[C@@H]1Cc2c3ccccc3[nH]c2[C@]2(C[C@H](c3ccccc3)C2)N1: 63.6
- Cc1cccc(C)c1NC(=O)[C@@H]1Cc2c([nH]c3ccccc23)C2(CCN(c3ccccc3)CC2)N1: 120
- Cc1cccnc1NC(=O)[C@@H]1Cc2c3ccccc3[nH]c2[C@]2(C[C@@H](c3ccccc3)C2)N1: 160
- CCc1ccc(N2CC3(C2)N[C@H](C(=O)Nc2c(C)cccc2C)Cc2c3[nH]c3ccccc23)cc1: 101
- CN(C)c1ccccc1NC(=O)[C@@H]1Cc2c3ccccc3[nH]c2[C@]2(C[C@@H](c3ccccc3)C2)N1: 109

Look up viability at 24 h, 10 µM for this molecule: CN(C)c1ccccc1NC(=O)[C@@H]1Cc2c3ccccc3[nH]c2[C@]2(C[C@H](c3ccccc3)C2)N1
66.3

Look up viability at 24 h, 10 µM for this molecule: Cc1cccc(C)c1NC(=O)[C@@H]1Cc2c([nH]c3ccccc23)C2(CN(c3ccccc3)C2)N1
110

Look up viability at 24 h, 10 µM for this molecule: O=C(Nc1ccccn1)[C@@H]1Cc2c3ccccc3[nH]c2[C@]2(C[C@@H](c3ccccc3)C2)N1
127

---

Entries annotated with measured viability at 24 h, 10 µM
assay: Cytotoxicity against bone marrow macrophage cells (unknown origin) assessed as cell viability at 10 uM incubated for 24 hrs by CCK8 assay relative to control; type: toxicity, cell-based; conditions: read-out: Activity
# value in %; strip the unit string

Field: example entries. Status: answers known.
• Cc1cccc(C)c1NC(=O)[C@@H]1Cc2c([nH]c3ccccc23)C2(CN(c3ccc(C#N)cc3)C2)N1 = 105
• Cc1cccc(C)c1NC(=O)[C@@H]1Cc2c([nH]c3ccccc23)C2(CN(c3ccc(S(C)(=O)=O)cc3)C2)N1 = 106
• COc1cccc(OC)c1NC(=O)[C@@H]1Cc2c3ccccc3[nH]c2[C@]2(C[C@H](c3ccccc3)C2)N1 = 95.7
• Cc1cccc(C)c1NC(=O)[C@@H]1Cc2c([nH]c3ccccc23)C2(CN(c3ccc(C(F)(F)F)cc3)C2)N1 = 117

Look up viability at 24 h, 10 µM for this compound: Cc1ccccc1NC(=O)[C@@H]1Cc2c3ccccc3[nH]c2[C@]2(C[C@@H](c3ccccc3)C2)N1
102

Look up viability at 24 h, 10 µM for this compound: Cc1cccc(C)c1NC(=O)[C@@H]1Cc2c3ccccc3[nH]c2[C@]2(C[C@H](c3ccccc3)C2)N1
95.1

Look up viability at 24 h, 10 µM for this compound: Cc1cccc(C)c1NC(=O)[C@@H]1Cc2c([nH]c3ccccc23)[C@@](C)(CCc2ccccc2)N1
106

---

test: Inhibition of RANKL/M-CSF-induced osteoclastogenesis in male C57/BL6 mouse bone marrow cells at 0.1 uM incubated for 5 to 7 days by TRAP staining based analysis relative to control; format: functional; conditions: C57/BL6, Bone marrow cell, time 5-7 day
Classification field: MET = inhibition at 0.1 µM at or over 20%; NOT MET = inhibition at 0.1 µM under 20%.

Recorded results for 3 molecules are shown here.
- Cc1cccc(C)c1NC(=O)[C@@H]1Cc2c3ccccc3[nH]c2[C@]2(C[C@@H](c3ccccc3)C2)N1: MET
- Cc1cccc(C)c1NC(=O)[C@@H]1Cc2c([nH]c3ccccc23)[C@](C)(CCc2ccccc2)N1: MET
- COc1cccc(OC)c1NC(=O)[C@@H]1Cc2c3ccccc3[nH]c2[C@]2(C[C@@H](c3ccccc3)C2)N1: NOT MET

Threshold query (inhibition at 0.1 µM >= 20%) on O=C(Nc1ccccn1)[C@@H]1Cc2c3ccccc3[nH]c2[C@]2(C[C@@H](c3ccccc3)C2)N1
NOT MET

Threshold query (inhibition at 0.1 µM >= 20%) on Cc1ccccc1NC(=O)[C@@H]1Cc2c3ccccc3[nH]c2[C@]2(C[C@@H](c3ccccc3)C2)N1
MET

Threshold query (inhibition at 0.1 µM >= 20%) on Cc1cccc(C)c1NC(=O)[C@@H]1Cc2c([nH]c3ccccc23)C2(CN(c3ccc(S(C)(=O)=O)cc3)C2)N1
MET

Threshold query (inhibition at 0.1 µM >= 20%) on CC(C)c1ccccc1NC(=O)[C@@H]1Cc2c3ccccc3[nH]c2[C@]2(C[C@H](c3ccccc3)C2)N1
NOT MET
